Each item that follows carries a reported TGI.
System: HOP-62 NSCLC
Experiment: NCI tumour cell line growth inhibition, 48 h

# compound, assay result
rows = [
    ("Cc1ccc(N2C(=O)C=C(C3=C(O)C(=O)N(c4ccc(C)cc4)C3=O)C2=O)cc1", "> 100 µM"),
    ("CC(C)(C)OCC1NC(=O)[C@@H]2Cc3c([nH]c4ccccc34)C(c3ccccc3)N2C1=O (stereo not given in full)", "> 50 µM"),
    ("CC(O)c1cc2c(s1)C(=O)c1ccsc1C2=O (stereo not given)", "0.283 µM"),
    ("COc1cc(C2SCC(=O)N2c2ccc(-n3c(-c4ccccc4)nc4ccccc4c3=O)cc2)cc(OC)c1OC (stereo not given)", "> 100 µM"),
]

For this compound ( COc1ccc(-c2c3c(cc4cc5c(cc24)OCO5)C(=O)OC3)cc1OC ), measured TGI is 7.16 µM

====

TGI values by entry
Tested on: MOLT-4 leukemia
Assay: NCI tumour cell line growth inhibition, 48 h
Return type: number; implicit unit µM.

# annotated cases, reported TGI shown
# molecule, study system, TGI, µM
data = [
    ("C#CC1(OC(C)=O)CCC2C3CC=C4C=C(OC(C)=O)CCC4(C)C3CCC21C (stereo not drawn)", "MOLT-4 leukemia", 33.3),
    ("C[C@]12CC[C@@H]3c4cc(-c5ccc(F)cc5)c(O)cc4CC[C@H]3[C@@H]1CC[C@@H]2O", "MOLT-4 leukemia", 18.3),
    ("CCC(C(=O)C(=O)C(CC)P1(=O)OC(C)(C)CN1C(C)(C)C)P1(=O)OC(C)(C)CN1C(C)(C)C (stereo not drawn)", "MOLT-4 leukemia", 82.3),
]

Lab note: next molecule to report on.
Short answer for COc1cc(-c2ccc(-c3ccc(C(=N)N)nc3)s2)cc(OC)c1OC : TGI was 6.9

====

Test system: UACC-62 melanoma
Experiment: NCI tumour cell line growth inhibition, 48 h
experimental endpoint: TGI

Check out these entries, answers already filled in.
# compound, study system, experimental endpoint, assay result
rows = [
    ("N#CC(C#N)=C/C=C(\\Sc1c(Cl)c(Cl)nc(Cl)c1Cl)c1ccc(Cl)cc1", "UACC-62 melanoma", "TGI", "30 µM"),
    ("Cc1ccc(Cc2cnc(NC(=O)/C=C/c3cccc(C)c3)s2)cc1", "UACC-62 melanoma", "TGI", "25.3 µM"),
    ("O=P1(Oc2ccc(Cl)cc2Cl)Oc2ccc3ccccc3c2-c2c(ccc3ccccc23)O1", "UACC-62 melanoma", "TGI", "70.4 µM"),
    ("Cc1cc(=O)oc2c(C)c(O)ccc12", "UACC-62 melanoma", "TGI", "> 100 µM"),
    ("CSC1=Nc2ccccc2-c2nc3ccccc3cc2C1", "UACC-62 melanoma", "TGI", "> 100 µM"),
    ("CCOC(=O)/C(=C\\c1ccc(N(CCC#N)CCC#N)cc1)NC(=O)c1cc([N+](=O)[O-])ccc1Cl", "UACC-62 melanoma", "TGI", "> 100 µM"),
    ("CC(=Nc1ccccc1)C1=C(O)C(Cc2ccc(O)cc2)NC1=O (centres undefined)", "UACC-62 melanoma", "TGI", "> 100 µM"),
    ("CN(C)CC1CN=C(N)O1 (centres undefined)", "UACC-62 melanoma", "TGI", "> 100 µM"),
    ("Clc1nssc1=Nc1nonc1-c1ccccc1", "UACC-62 melanoma", "TGI", "> 100 µM"),
    ("COc1cc2c(cc1OC)-c1ccc3cc4c(cc3c1N(CCCn1ccnc1)C2)OCO4", "UACC-62 melanoma", "TGI", "2.72 µM"),
]

Sample COc1cc2nc(-c3cccs3)nc(N3CCN(c4ccccc4C(F)(F)F)CC3)c2cc1OC ; TGI observed: > 100 µM

Entry CNC(=O)c1ccc(N2C(=S)N(c3ccc(C#N)c(C(F)(F)F)c3)C(=O)C2(C)C)cc1F — recorded TGI = > 72.4 µM

Measured TGI, COc1cc(/C=C2\N=C(c3ccccc3)N(c3nc4cc(C)c(C)cc4s3)C2=O)ccc1O : > 100 µM

Item: CCOc1ccc(N=Cc2ccc3cc(C)ccc3n2)cc1 | TGI: > 100 µM

====

Tested on: COLO 205 colon
Test: NCI tumour cell line growth inhibition, 48 h
experimental endpoint: TGI (µM)
Supply the numeric figure in µM, leaving out any unit text.

Illustrative cases are given below, each with its answer.
# compound, TGI, µM
measured = [
    ("O=C1CC(=O)N(C(=O)c2nn(-c3ccc(Cl)cc3)cc2O)N1", 3.99),
    ("COc1cccc(/C=C2\\CCCc3ccccc3C2=O)c1", 35.6),
]

Now turn to the next compound.
Reported TGI (COLO 205 colon) for entry COc1ccc2c3c([nH]c2c1[N+](=O)[O-])C(C)N(Cc1ccc([N+](=O)[O-])cc1)CC3 (configuration not stated) is 35.8

====

Test system: ACHN renal
Assay: NCI tumour cell line growth inhibition, 48 h
Measured TGI by item

Examples from the recorded data:
# compound, study system, assay result
data = [
    ("C=C1C(=O)O[C@H]2[C@H]1CC/C(COC(=O)c1cc3ccccc3o1)=C\\CC[C@@]1(C)O[C@@H]21", "ACHN renal", "2.76 µM"),
    ("N#Cc1c(=O)c2ccccc2n2c1[nH]c1ccccc12", "ACHN renal", "> 100 µM"),
    ("CN(C)CCCn1c(Cc2ccc(Cl)cc2)nc2cc(C(F)(F)F)ccc21", "ACHN renal", "26 µM"),
    ("O=S(=O)(c1ccccc1)C(c1ccc2ccccc2n1)S(=O)(=O)c1ccccc1", "ACHN renal", "> 100 µM"),
    ("CC(=Nc1ccccc1)C1=C(O)C(Cc2ccc(O)cc2)NC1=O (stereo not given)", "ACHN renal", "> 100 µM"),
]

Consider the record given below.
The measured TGI associated with O=C1C=CC(=O)C12CCc1ccccc12 reads > 100 µM

====

Tested on: K-562 leukemia
Test: NCI tumour cell line growth inhibition, 48 h
Reported TGI values follow for various molecules

# molecule, study system, TGI
measured = [
    ("CNC(=S)NC(=O)c1c(Cl)n(C(=O)OC(C)(C)C)c2ccccc12", "K-562 leukemia", "> 100 µM"),
    ("Cc1ccccc1NC(=O)c1c(C)oc2c1C(=O)c1ccccc1C2=O", "K-562 leukemia", "57.9 µM"),
    ("Cc1cc(O)cc2c1[C@]1(C)CCC3C(C)(C)CCC[C@]3(C)[C@H]1C2 (stereo partly specified)", "K-562 leukemia", "> 100 µM"),
]

Measured TGI, CCO/C=N\c1c(C#N)c(-c2ccc(Cl)cc2)cn1-c1ccc(C)cc1 : > 100 µM

Entry CS(=O)(=O)CCNCc1ccc(-c2ccc3ncnc(Nc4ccc(OCc5ccccc5)c(Br)c4)c3c2)o1 — recorded TGI = > 20.6 µM

The molecule identified as C#CC1(OC(C)=O)CCC2C3CC=C4C=C(OC(C)=O)CCC4(C)C3CCC21C (stereo unspecified) registered its TGI at 83.2 µM

// TGI value for O=C(c1ccccc1)c1c(-c2ccccc2)sc2nc3ccccc3nc12 : > 100 µM

Summary for this molecule, CC[C@H](Nc1c(O)c2c(c(O)c1Cl)C(=O)C=CC2=O)C(=O)OC : TGI is > 10 µM

get_value(item= CCCSc1ccc2[nH]c(/N=C/c3ccccc3)cc2c1 , readout=TGI) returns 38.8 µM

// sample Cc1cc(C)c(S(=O)(=O)N2CCCN(S(=O)(=O)c3c(C)cc(C)cc3C)OCCCO2)c(C)c1 , its TGI was > 100 µM

====

The entries below come with measured TGI values attached.
Tested on: SF-268 CNS
Assay: NCI tumour cell line growth inhibition, 48 h

Please review the entries below; each comes with its answer.
# molecule, TGI
measured = [
    ("COC(=O)c1ccc(NC(=O)O/N=C(\\Cl)C(C)C)cc1", "> 78.1 µM"),
    ("Cc1occc1C(=S)Nc1ccc(Cl)c(C(=O)OC(C(C)C)C(C)C)c1", "45.1 µM"),
    ("COc1cc(Nc2nc3ccccc3nc2NS(=O)(=O)c2ccc(NC(=O)c3ccc(C)c(OC)c3)cc2)cc(OC)c1", "> 100 µM"),
    ("CCCCCCCCCCCCCCCCCCN(C)C(COC)COP(=O)([O-])OCC[N+](C)(C)C (configuration not stated)", "12.5 µM"),
    ("CC(C)[O-].CC(C)[O-].O=C1C=C([O-])C(=O)c2ccccc21.O=C1C=C([O-])C(=O)c2ccccc21.[Ti+4]", "> 100 µM"),
    ("CCC(=O)Nc1ccccc1C#C/C=C\\C#Cc1ccccc1SC", "> 100 µM"),
]

Continue with the next molecule.
Record C[C@]12CCC(=O)C(O)=C1CC[C@@H]1C2CC[C@]2(C)NC(=O)CCC12 (some centres not stated) , field TGI: > 100 µM
